Test system: DIGSA
Test: Pre-emergence herbicidal effect against DIGSA
Format: in vivo, Digitaria sanguinalis
Details: 320 g/ha, scored visually after 3 weeks vs untreated controls, 100% = plants have died
readoutType: Pre-emergence action [%] against DIGSA (%)
Please respond with the number in % and leave the unit unwritten.

Q. Supply reported Pre-emergence action [%] against DIGSA belonging to this molecule: CC#Cc1cc(Cl)c(C2=C(OC(=O)OCC)C3(CCC(OC)CC3)NC2=O)c(C2CC2)c1 (centres unmarked) [Example P33]
A. 100

Q. Supply reported Pre-emergence action [%] against DIGSA belonging to this molecule: CC#Cc1cc(Cl)c(C2=C(OC(=O)OC(C)(C)C)C3(CCC(OCCOC)CC3)NC2=O)c(CC)c1 (centres unmarked) [Example P29]
A. 90

Q. Supply reported Pre-emergence action [%] against DIGSA belonging to this molecule: CC#Cc1cc(C)c(C2=C(OC(=O)OCC)C3(CCCC(OCCOC)C3)NC2=O)c(Br)c1 (centres unmarked) [Example Q4]
A. 100

Q. Supply reported Pre-emergence action [%] against DIGSA belonging to this molecule: CC#Cc1cc(C)c(C2=C(O)C3(CCCC(OCCC)C3)NC2=O)c(Br)c1 (centres unmarked) [Example D5]
A. 100

Q. Supply reported Pre-emergence action [%] against DIGSA belonging to this molecule: CC#Cc1cc(C)c(C2=C(O)C3(CCCC(OCC(C)C)C3)NC2=O)c(Cl)c1 (centres unmarked) [Example D9]
A. 100

Q. Supply reported Pre-emergence action [%] against DIGSA belonging to this molecule: CC#Cc1cc(Cl)c(C2=C(OC(=O)OCC)C3(CCC(OCC)CC3)NC2=O)c(CC)c1 (centres unmarked) [Example P22]
A. 100

Q. Supply reported Pre-emergence action [%] against DIGSA belonging to this molecule: CC#Cc1cc(Cl)c(C2=C(OC(=O)OC(C)(C)C)C3(CCC(OC)CC3)NC2=O)c(CC)c1 (centres unmarked) [Example P30]
A. 100

Q. Supply reported Pre-emergence action [%] against DIGSA belonging to this molecule: CC#Cc1cc(Cl)c(C2=C(OC(=O)C(C)C)C3(CCC(OCCOC)CC3)NC2=O)c(CC)c1 (centres unmarked) [Example P32]
A. 90

----------
Task for the reader: assign each of the following molecules its reported Post-emergence action [%] against SETVI.
Tested on: SETVI
Test: Post-emergence herbicidal effect against SETVI
Assay type: in vivo, Setaria viridis
Settings: one-leaf stage, 80 g/ha, assessed visually after about 3 weeks vs untreated controls, 100% = plants have died
Please respond with the number in % and leave the unit unwritten.

Q. Supply reported Post-emergence action [%] against SETVI belonging to this molecule: CC#Cc1cc(Br)c(C2=C(O)C3(CCCC(OCCOC)C3)NC2=O)c(CC)c1 (centres unmarked) [Example D8]
A. 90

Q. Supply reported Post-emergence action [%] against SETVI belonging to this molecule: CC#Cc1cc(Cl)c(C2=C(OC(=O)OC)C3(CCC(OC)CC3)NC2=O)c(CC)c1 (centres unmarked) [Example P24]
A. 100

Q. Supply reported Post-emergence action [%] against SETVI belonging to this molecule: CC#Cc1cc(C)c(C2=C(O)C3(CCC(OC(C)C)CC3)NC2=O)c(Cl)c1 (centres unmarked) [Example E13]
A. 100

Q. Supply reported Post-emergence action [%] against SETVI belonging to this molecule: CC#Cc1cc(Cl)c(C2=C(OC(=O)OCC)C3(CCC(OC)CC3)NC2=O)c(C2CC2)c1 (centres unmarked) [Example P33]
A. 100

Q. Supply reported Post-emergence action [%] against SETVI belonging to this molecule: CC#Cc1cc(C)c(C2=C(O)C3(CCCC(OCCC)C3)NC2=O)c(Cl)c1 (centres unmarked) [Example D1]
A. 100

Q. Supply reported Post-emergence action [%] against SETVI belonging to this molecule: CC#Cc1cc(Cl)c(C2=C(OC(=O)C(C)C)C3(CCC(OCCOC)CC3)NC2=O)c(CC)c1 (centres unmarked) [Example P32]
A. 90

Q. Supply reported Post-emergence action [%] against SETVI belonging to this molecule: CC#Cc1cc(Br)c(C2=C(OC(=O)OCC)C3(CCCC(OCCOC)C3)NC2=O)c(C2CC2)c1 (centres unmarked) [Example Q2]
A. 100

Q. Supply reported Post-emergence action [%] against SETVI belonging to this molecule: CC#Cc1cc(C)c(C2=C(OC(=O)OCC)C3(CCCC(OCC(C)C)C3)NC2=O)c(Cl)c1 (centres unmarked) [Example Q8]
A. 100

Q. Supply reported Post-emergence action [%] against SETVI belonging to this molecule: CC#Cc1cc(Br)c(C2=C(O)C3(CCC(OC)CC3)NC2=O)c(CC)c1 (centres unmarked) [Example E25]
A. 90

Q. Supply reported Post-emergence action [%] against SETVI belonging to this molecule: CC#Cc1cc(C)c(C2=C(OC(=O)OCC)C3(CCC(OC)CC3)NC2=O)c(Cl)c1 (centres unmarked) [Example P11]
A. 100

Q. Supply reported Post-emergence action [%] against SETVI belonging to this molecule: CC#Cc1cc(C)c(C2=C(O)C3(CCC(CC)CC3)NC2=O)c(Cl)c1 (centres unmarked) [Example E1]
A. 100

Q. Supply reported Post-emergence action [%] against SETVI belonging to this molecule: CC#Cc1cc(C)c(C2=C(OC(=O)C(C)C)C3(CCC(CC)CC3)NC2=O)c(Cl)c1 (centres unmarked) [Example P1]
A. 100

Q. Supply reported Post-emergence action [%] against SETVI belonging to this molecule: CC#Cc1cc(Cl)c(C2=C(OC(=O)C(C)C)C3(CCC(OCC)CC3)NC2=O)c(CC)c1 (centres unmarked) [Example P31]
A. 100

Q. Supply reported Post-emergence action [%] against SETVI belonging to this molecule: CC#Cc1cc(C)c(C2=C(OC(=O)OCC)C3(CCCC(OCCC)C3)NC2=O)c(Cl)c1 (centres unmarked) [Example Q5]
A. 100

Q. Supply reported Post-emergence action [%] against SETVI belonging to this molecule: CC#Cc1cc(Cl)c(C2=C(OC(=O)OC(C)(C)C)C3(CCC(OCCOC)CC3)NC2=O)c(CC)c1 (centres unmarked) [Example P29]
A. 90

Q. Supply reported Post-emergence action [%] against SETVI belonging to this molecule: CC#Cc1cc(C)c(C2=C(O)C3(CCC(OC)CC3)NC2=O)c(Cl)c1 (centres unmarked) [Example E19]
A. 100

Q. Supply reported Post-emergence action [%] against SETVI belonging to this molecule: CC#Cc1cc(C)c(C2=C(OC(=O)OCC)C3(CCC(CC)CC3)NC2=O)c(Cl)c1 (centres unmarked) [Example P3]
A. 100
